assayProtocol: In vitro plasma stability assay
Format: in vitro ADME, ICR mice
conditions: FIG. 1; isolated mouse plasma, 10 μM peptide, 37° C.; read-out: half-life (T1/2)
Ends that are not written are not given here.
experimentalReadout: half-life (min)
I only need the number, in min, no unit after it.

I would be grateful if you could share the reported half-life for HGVSGHGQHGVHG [LAL] . 51.8
